Would you mind telling me the reported FcγRIIb-mediated activation of HEK-Blue CD40L cells, EC50 of each entry?
Target: human CD40 on cells (Raji cells; HEK-Blue CD40L cells; human dendritic cells) (human, UniProt P25942 21-277)
Sequence (P25942 21-277): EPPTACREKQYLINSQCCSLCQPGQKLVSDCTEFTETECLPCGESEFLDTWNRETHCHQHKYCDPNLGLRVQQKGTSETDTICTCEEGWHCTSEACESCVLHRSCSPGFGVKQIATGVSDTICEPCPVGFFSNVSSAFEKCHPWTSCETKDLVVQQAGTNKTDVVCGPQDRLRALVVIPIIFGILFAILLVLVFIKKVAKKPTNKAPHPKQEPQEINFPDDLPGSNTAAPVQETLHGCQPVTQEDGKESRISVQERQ
Protocol: cell-based or functional assay
One number for each entry, in pM.

Before answering, review these 2 worked examples.
A297V4-Fc (Fc fusion) EVQLVESGGGLVQPGGSLRLSCAASGFTFSRYGMKWVRQAPGKGLEWVSTINSHGDSTYYADSVKGRFTISRDNSKNTLYLQMNSLRAEDTAVYYCLKIDYSDYSSRGQGTLVTVSSEPKSADKTHTCPPCPAPELLGGPSVFLFPPKPKDTLMISRTPEVTCVVVDVEHEDPEVKFNWYVDGVEVHNAKTKPREEQYNSTYRVVSVLTVLHQDWLNGKEYKCKVSSKAFPAPIEKTISKAKGQPREPQVYTLPPSRDELTKNQVSLTCLVKGFYPSDIAVEWESNGQPENNYKTTPPVLDSDGSFFLYSKLTVDKSRWQQGNVFSCSVMHEALHNHYTQKSLSLSPGK = 38
A12V3-Fc (Fc fusion) EVQVVESGGGLVQPGGSLRLSCAASGFTFSNYGMKWVRQAPGKGLEWVSTILSQGGSTYYADSVKGRFTISRDNSKNTLYLQMNSLRAEDTAVYYCLRVDWSDYSPRGQGTQVTVSSEPKSADKTHTCPPCPAPELLGGPSVFLFPPKPKDTLMISRTPEVTCVVVDVEHEDPEVKFNWYVDGVEVHNAKTKPREEQYNSTYRVVSVLTVLHQDWLNGKEYKCKVSSKAFPAPIEKTISKAKGQPREPQVYTLPPSRDELTKNQVSLTCLVKGFYPSDIAVEWESNGQPENNYKTTPPVLDSDGSFFLYSKLTVDKSRWQQGNVFSCSVMHEALHNHYTQKSLSLSPGK = 11

I need FcγRIIb-mediated activation of HEK-Blue CD40L cells, EC50 for every entry listed below, if you could help.
1. A297V1-Fc (Fc fusion) QVQLVESGGGVVQPGGSLRLSCAASGFTFSRYGMKWVRQAPGKGLEWVSTINSHGDTTYYADSVKGRFTISRDNAKNSLYLQMNSLRAEDTALYYCARIDYSDYSSRGQGTMVTVSSEPKSADKTHTCPPCPAPELLGGPSVFLFPPKPKDTLMISRTPEVTCVVVDVEHEDPEVKFNWYVDGVEVHNAKTKPREEQYNSTYRVVSVLTVLHQDWLNGKEYKCKVSSKAFPAPIEKTISKAKGQPREPQVYTLPPSRDELTKNQVSLTCLVKGFYPSDIAVEWESNGQPENNYKTTPPVLDSDGSFFLYSKLTVDKSRWQQGNVFSCSVMHEALHNHYTQKSLSLSPGK
2. A297V3-Fc (Fc fusion) EVQLVESGGGLVQPGGSLRLSCAASGFTFSRYGMKWVRQAPGKGLEWVSTINSHGDTTYYADSVKGRFTISRDNAKNSLYLQMNSLRAEDTAVYYCLRIDYSDYSSRGQGTLVTVSSEPKSADKTHTCPPCPAPELLGGPSVFLFPPKPKDTLMISRTPEVTCVVVDVEHEDPEVKFNWYVDGVEVHNAKTKPREEQYNSTYRVVSVLTVLHQDWLNGKEYKCKVSSKAFPAPIEKTISKAKGQPREPQVYTLPPSRDELTKNQVSLTCLVKGFYPSDIAVEWESNGQPENNYKTTPPVLDSDGSFFLYSKLTVDKSRWQQGNVFSCSVMHEALHNHYTQKSLSLSPGK
3. A12V2-Fc (Fc fusion) EVQLVESGGGLVQPGGSLRLSCAASGFTFSNYGMKWVRQAPGKGLEWVSTILSQGGSTYYADSVKGRFTISRDNAKNSLYLQMNSLRAEDTALYYCLRVDWSDYSPRGQGTQVTVSSEPKSADKTHTCPPCPAPELLGGPSVFLFPPKPKDTLMISRTPEVTCVVVDVEHEDPEVKFNWYVDGVEVHNAKTKPREEQYNSTYRVVSVLTVLHQDWLNGKEYKCKVSSKAFPAPIEKTISKAKGQPREPQVYTLPPSRDELTKNQVSLTCLVKGFYPSDIAVEWESNGQPENNYKTTPPVLDSDGSFFLYSKLTVDKSRWQQGNVFSCSVMHEALHNHYTQKSLSLSPGK
4. A12V1-Fc (Fc fusion) EVQLVESGGGLVQPGGSLRLSCAASGFTFSNYGMKWVRQAPGKGLEWVSTILSQGGSTYYADSVKGRFTISRDNAKNSLYLQMNSLRAEDTALYYCARVDWSDYSPRGQGTMVTVSSEPKSADKTHTCPPCPAPELLGGPSVFLFPPKPKDTLMISRTPEVTCVVVDVEHEDPEVKFNWYVDGVEVHNAKTKPREEQYNSTYRVVSVLTVLHQDWLNGKEYKCKVSSKAFPAPIEKTISKAKGQPREPQVYTLPPSRDELTKNQVSLTCLVKGFYPSDIAVEWESNGQPENNYKTTPPVLDSDGSFFLYSKLTVDKSRWQQGNVFSCSVMHEALHNHYTQKSLSLSPGK

1: 21; 2: 6; 3: 2; 4: 9

According to the records, this binder A297V2-Fc (Fc fusion) QVQLVESGGGVVQPGGSLRLSCAASGFTFSRYGMKWVRQAPGKGLEWVSTINSHGDTTYYADSVKGRFTISRDNAKNSLYLQMNSLRAEDTALYYCLRIDYSDYSSRGQGTMVTVSSEPKSADKTHTCPPCPAPELLGGPSVFLFPPKPKDTLMISRTPEVTCVVVDVEHEDPEVKFNWYVDGVEVHNAKTKPREEQYNSTYRVVSVLTVLHQDWLNGKEYKCKVSSKAFPAPIEKTISKAKGQPREPQVYTLPPSRDELTKNQVSLTCLVKGFYPSDIAVEWESNGQPENNYKTTPPVLDSDGSFFLYSKLTVDKSRWQQGNVFSCSVMHEALHNHYTQKSLSLSPGK displays FcγRIIb-mediated activation of HEK-Blue CD40L cells, EC50 of 5
